B1: TPR t1 (parent)
chain: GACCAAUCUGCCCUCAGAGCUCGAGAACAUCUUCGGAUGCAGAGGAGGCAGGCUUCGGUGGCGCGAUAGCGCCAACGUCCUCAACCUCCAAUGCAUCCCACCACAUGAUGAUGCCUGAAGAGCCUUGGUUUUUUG

Variants of: B1
assay.details: polymerase ribozyme fitness, log enrichment relative to wild type (log ratio); higher = more active; in vitro selection for triplet polymerase activity

- mutation.key: "A16G G60U G107U C124G"
  polymerase ribozyme fitness (log ratio): -4.06
- mutation.key: "C3A A66C"
  polymerase ribozyme fitness (log ratio): -2.64
- mutation.key: "C13U U32G U87C"
  polymerase ribozyme fitness (log ratio): -7.09
- mutation.key: "C15U A37C G61C"
  polymerase ribozyme fitness (log ratio): -3.39
- mutation.key: "C40G G110A"
  polymerase ribozyme fitness (log ratio): -1.53
- mutation.key: "A90U C114G A118G"
  polymerase ribozyme fitness (log ratio): -3.15
- mutation.key: "U7A G35C A41C C64U C79U G113U"
  polymerase ribozyme fitness (log ratio): -7.12
- mutation.key: "U33C A46C"
  polymerase ribozyme fitness (log ratio): -6.49
- mutation.key: "G17A A43U C73G G120A"
  polymerase ribozyme fitness (log ratio): -3.38
- mutation.key: "A6G C49U G60C G135U"
  polymerase ribozyme fitness (log ratio): -2.21
- mutation.key: "C11G C56G C79U"
  polymerase ribozyme fitness (log ratio): -0.259
- mutation.key: "C115U U131A"
  polymerase ribozyme fitness (log ratio): -0.58
- mutation.key: "C34A C62U C85G U130C"
  polymerase ribozyme fitness (log ratio): -2.75
- mutation.key: "A5G U54G G69U"
  polymerase ribozyme fitness (log ratio): -0.999
- mutation.key: "A50G G77U C86G"
  polymerase ribozyme fitness (log ratio): -1.1
- mutation.key: "A41G C99A A119G U125A"
  polymerase ribozyme fitness (log ratio): -6.99
- mutation.key: "C13A C40A G93A A118U U129C"
  polymerase ribozyme fitness (log ratio): -3.28
- mutation.key: "G77U C82U"
  polymerase ribozyme fitness (log ratio): -0.811
- mutation.key: "U9G A27U U133G"
  polymerase ribozyme fitness (log ratio): -2.53
- mutation.key: "C89A G117U"
  polymerase ribozyme fitness (log ratio): -4.53
- mutation.key: "A6C C82U"
  polymerase ribozyme fitness (log ratio): -0.547
- mutation.key: "A27G G45C G63A C104A U131C"
  polymerase ribozyme fitness (log ratio): -6.14
- mutation.key: "C34G A43C G60U"
  polymerase ribozyme fitness (log ratio): -6.09
- mutation.key: "C15U G52U G61A C98U U125A U131A"
  polymerase ribozyme fitness (log ratio): -3.15
- mutation.key: "G36U C115U"
  polymerase ribozyme fitness (log ratio): -2.01

Every entry's value here was drawn from the RNAGym collection of RNA variant scans (doi:10.1073/pnas.2313332121).
